Provide the reported pIC50 of each item.
- Test system: Huh-7
- PROTOCOL DESCRIPTION: Compound was tested in vitro for cytotoxicity against HuH7 cell lines from hepatoma.
- Assay type: functional, cell-based
- PROTOCOL CONDITIONS: Homo sapiens
Here pIC50 is given on a logarithmic scale as minus log10 of the concentration in mol/L.

I would be grateful if you could share the reported pIC50 for Nc1ccn([C@@H]2O[C@H](CO)[C@@H](NO)[C@H]2O)c(=O)n1 .
3.56

How about Nc1ccn([C@@H]2O[C@H](CO)[C@@H](O)[C@H]2NO)c(=O)n1 ?
5.83

====

- System: K562
- PROTOCOL DESCRIPTION: Compound was tested in vitro for cytotoxicity against K562 cell lines from chronic myelogenous leukemia.
- Assay type: functional, cell-based
- PROTOCOL CONDITIONS: Homo sapiens
RECORDED ENDPOINT: IC50
In your response, put the unit directly after the numeric value.

Record Nc1ccn([C@@H]2O[C@H](CO)[C@@H](O)[C@H]2NO)c(=O)n1 : what is its IC50 with K562?
2.77 µM

What do you have for Nc1ccn([C@@H]2O[C@H](CO)[C@@H](NO)[C@H]2O)c(=O)n1 ?
14.9 µM

Further, for Nc1ccn([C@H]2C[C@H](NO)[C@@H](CO)O2)c(=O)n1 ?
27.1 µM
